Assay: MultiTox-Fluor Cytotoxicity Assay - LYMP1-001 - Live Cells (AID 947)
Conditions: LYMP1-001 lymphoblastoid cells, live-cell protease fluorescence viability; series mostly up to 92.2 µM
Inconclusive results are not listed. Calls of active or inactive are those of the source. The call rests on the fitted dose curve; in most records, active means well fitted cell-killing curve with a large enough effect; inconclusive means small, poorly fitted or top-dose-only effect; inactive means flat fitted curve, though single readings scatter.
Outcome codes: yes (1) = active, no (0) = inactive

compound=Cc1ccc2ccc3cccc4ccc1c2c34 assigned_class="no (0)"
compound=Cc1cccnc1 assigned_class="no (0)"
compound=C=C(C#N)C(=O)OCC assigned_class="no (0)"
compound=Cc1ccc(C(=O)O)cc1[N+](=O)[O-] assigned_class="no (0)"
compound=COc1ccc([N+](=O)[O-])cc1N assigned_class="no (0)"
compound=Oc1cc(Cl)cc(Cl)c1Cl assigned_class="no (0)"
compound=Oc1ccc2c(c1)OCO2 assigned_class="no (0)"
compound=CC(=O)CC(=O)Nc1ccccc1 assigned_class="no (0)"
compound=c1ccc2ncccc2c1 assigned_class="no (0)"
compound=CC(CCC(=O)O)(c1ccc(O)cc1)c1ccc(O)cc1 assigned_class="no (0)"
compound=CN(C)c1ccc(Cc2ccc(N(C)C)cc2)cc1 assigned_class="no (0)"
compound=Cc1ccc(S(N)(=O)=O)cc1 assigned_class="no (0)"
compound=COc1ccc(C)cc1N assigned_class="no (0)"
compound=C=CC(=O)CC assigned_class="no (0)"
compound=Cc1cc(=O)oc2cc(O)cc(O)c12 assigned_class="no (0)"
compound=Cc1ccc(O)c(N)c1 assigned_class="no (0)"
compound=Cc1c2ccccc2c(C)c2c1ccc1ccccc12 assigned_class="no (0)"
compound=CCc1ccc(C(c2ccc(CC)cc2)C(Cl)Cl)cc1 assigned_class="no (0)"
compound="CC(=O)OC(C(=O)c1ccccc1)c1ccccc1 (centres undefined)" assigned_class="no (0)"
compound=CCCCCCCCOc1ccc(C(=O)O)cc1 assigned_class="no (0)"
compound=c1ccc(CSCc2ccccc2)cc1 assigned_class="no (0)"
compound=Brc1ccc(-c2ccccc2)cc1 assigned_class="no (0)"
compound=O=c1[nH]ncc2ccccc12 assigned_class="no (0)"
compound=Brc1cc(Oc2cc(Br)c(Br)c(Br)c2Br)c(Br)c(Br)c1Br assigned_class="no (0)"
compound="C=CC1CO1 (centres undefined)" assigned_class="no (0)"
compound="CCCCC(CC)COP(=O)(OCC(CC)CCCC)OCC(CC)CCCC (centres undefined)" assigned_class="no (0)"
compound=c1ccc(Nc2cccc3ccccc23)cc1 assigned_class="no (0)"
compound=Nc1ccc2c(c1)C(=O)c1ccccc1C2=O assigned_class="no (0)"
compound=c1ccncc1 assigned_class="no (0)"
compound=CC(C)COC(=O)COc1cc(Cl)c(Cl)cc1Cl assigned_class="no (0)"
compound=Oc1ccc(O)c2c(O)cccc12 assigned_class="no (0)"
compound="CCCCC(CC)COCCCN (centres undefined)" assigned_class="no (0)"
compound=CC/C=C/C/C=C/C/C=C/CCCCCCCC(=O)OCC assigned_class="no (0)"
compound=CCCC(=O)OC(=O)CCC assigned_class="no (0)"
compound=O=CC(=O)c1ccccc1 assigned_class="no (0)"
compound="CCC(Cl)CC(Cl)C(Cl)C(Cl)C(Cl)C(C)Cl (centres undefined)" assigned_class="no (0)"
compound=C/C(Cl)=C/CCl assigned_class="no (0)"
compound="O=C(OCC1CO1)C1CCCCC1C(=O)OCC1CO1 (centres undefined)" assigned_class="no (0)"
compound="Cc1ccccc1OCC1CO1 (centres undefined)" assigned_class="no (0)"
compound=Nc1cnn([C@@H]2O[C@H](CO)[C@@H](O)[C@H]2O)c(=O)n1 assigned_class="no (0)"
compound=Nc1ccccc1O assigned_class="no (0)"
compound=O=[N+]([O-])c1cccc(I)c1 assigned_class="no (0)"
compound="C[C@@H]1CC2(OC(O)[C@]3(C)O[C@H]23)O[C@H]2C[C@@]3(C)[C@@H]4CC[C@H]5C(C)(C)C(O[C@@H]6OC[C@@H](O)[C@H](O)[C@H]6O)CC[C@@]56C[C@@]46CC[C@]3(C)[C@@H]12 (some centres undefined)" assigned_class="no (0)"
compound=N=C1C=CC(=C(c2ccc(N)cc2)c2ccc(N)cc2)C=C1 assigned_class="yes (1)"

----------
Tested on: HB3
Experiment: qHTS profiling for inhibitors of Plasmodium falciparum proliferation (AID 504749); further: nearly all actives have a fitted effect of over 60% in size
Conditions: P. falciparum in erythrocytes, SYBR Green DNA, 72 h; series mostly up to 28.7 µM
Inconclusive results are not listed. Active and inactive are the calls of the source. Calls come from the whole dose curve; as a rule, active = well fitted inhibition curve with a large enough effect; inconclusive = small, poorly fitted or top-dose-only effect; inactive = flat fitted curve, though single readings scatter.
Labels: active, inactive

smiles_repr=CN(C)[C@H]1C(=O)C(C(=O)NCN2CCCC2)=C(O)[C@]2(O)C(=O)C3=C(O)c4c(O)cccc4[C@](C)(O)[C@H]3C[C@H]12 experimental_target=HB3 assigned_class=inactive
smiles_repr=C[C@]12CC[C@H]3c4ccc(O)cc4CC[C@@H]3[C@H]1CC[C@@H]2OP(=O)(O)O experimental_target=HB3 assigned_class=inactive
smiles_repr=CC1(C)S[C@@H]2[C@H](NC(=O)Cc3ccccc3)C(=O)N2[C@@H]1C(=O)O experimental_target=HB3 assigned_class=inactive
smiles_repr=C(=C/c1ccccc1)/CN1CCN(C(c2ccccc2)c2ccccc2)CC1 experimental_target=HB3 assigned_class=inactive
smiles_repr=O=C(O)[C@@H](S)[C@H](S)C(=O)O experimental_target=HB3 assigned_class=active
smiles_repr=NS(=O)(=O)c1cc2c(cc1Cl)N[C@H](Cc1ccccc1)NS2(=O)=O experimental_target=HB3 assigned_class=inactive
smiles_repr=COc1cc2nc(N(C)CCCNC(=O)[C@@H]3CCCO3)nc(N)c2cc1OC experimental_target=HB3 assigned_class=inactive
smiles_repr=Cc1onc(-c2c(F)cccc2Cl)c1C(=O)N[C@@H]1C(=O)N2[C@H]1SC(C)(C)[C@H]2C(=O)O experimental_target=HB3 assigned_class=inactive
smiles_repr=CC(C)(C)NC[C@@H](O)c1ccc(O)c(CO)n1 experimental_target=HB3 assigned_class=inactive
smiles_repr=OC[C@H](S)CS experimental_target=HB3 assigned_class=active

----------
Assay: Cell Viability - LYMP2-013 (AID 970);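 further: cells exposed to compound for 24 h at 37 °C; nearly all actives have a fitted effect of over 55% in size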
Conditions: LYMP2-013 lymphoblastoid cells viability; series mostly up to 92.2 µM
Inconclusive results are not listed. Calls of active or inactive are those of the source. The call rests on the fitted dose curve; in most records, active means well fitted cell-killing curve with a large enough effect; inconclusive means small, poorly fitted or top-dose-only effect; inactive means flat fitted curve, though single readings scatter.
Classes used: TRUE (active), FALSE (inactive)

compound=C=C(C#N)C(=O)OCC assigned_class=FALSE
compound=c1ccncc1 assigned_class=FALSE
compound=O=c1[nH]ncc2ccccc12 assigned_class=FALSE
compound=Cc1ccc(N)cc1[N+](=O)[O-] assigned_class=FALSE
compound=Cc1c(N)cccc1Cl assigned_class=FALSE
compound=CC(C)(C)C(=O)C1C(=O)c2ccccc2C1=O assigned_class=FALSE
compound="CC(=O)OC(C(=O)c1ccccc1)c1ccccc1 (configuration not stated)" assigned_class=FALSE
compound=O=C1OC(=O)c2ccccc21 assigned_class=FALSE
compound=O=CC(=O)c1ccccc1 assigned_class=FALSE
compound=CC(=O)c1ccc(Cl)c(Cl)c1Cl assigned_class=FALSE
compound=CC(=O)CC(=O)Nc1ccccc1 assigned_class=FALSE
compound=Brc1ccc(-c2ccccc2)cc1 assigned_class=FALSE
compound=Cc1ccc(O)c(N)c1 assigned_class=TRUE
compound=C[Si](C)(C)Cl assigned_class=FALSE
compound=CC/C=C/C/C=C/C/C=C/CCCCCCCC(=O)OCC assigned_class=TRUE
compound=c1ccc2c(c1)ccc1ccccc12 assigned_class=FALSE
compound=c1c[nH]cn1 assigned_class=FALSE
compound=NC(=O)c1ccc([N+](=O)[O-])cc1 assigned_class=FALSE
compound=COc1cc(-c2ccc(N=C=O)c(OC)c2)ccc1N=C=O assigned_class=FALSE
compound="CCCCC(CC)COCCCN (configuration not stated)" assigned_class=FALSE
compound="Cc1ccccc1OCC1CO1 (configuration not stated)" assigned_class=FALSE
compound=Oc1cc2c(cc1O)[C@H]1c3ccc(O)c(O)c3OC[C@@]1(O)C2 assigned_class=TRUE
compound="CCCCC(CC)COP(=O)(OCC(CC)CCCC)OCC(CC)CCCC (configuration not stated)" assigned_class=FALSE
compound=CC(=O)OCc1ccc2c(c1)OCO2 assigned_class=FALSE
compound=c1ccc(Nc2cccc3ccccc23)cc1 assigned_class=FALSE
compound=c1ccc(CSCc2ccccc2)cc1 assigned_class=FALSE
compound=CCCC(=O)OC(=O)CCC assigned_class=FALSE
compound=COc1ccc([N+](=O)[O-])cc1N assigned_class=FALSE
compound=CCCCCCN assigned_class=FALSE
compound=Nc1ccc(N=Nc2ccccc2)c(N)c1 assigned_class=FALSE
compound=C/C=C/C=C/C=O assigned_class=TRUE
compound=CC1=C(/C=C/C(C)=C/C=C/C(C)=C/C=O)C(C)(C)CCC1 assigned_class=TRUE
compound=Oc1c(Cl)cc(Cl)c(Cl)c1Cl assigned_class=FALSE
compound=c1ccc(COCc2ccccc2)cc1 assigned_class=FALSE
compound=Nc1cc([N+](=O)[O-])ccc1O assigned_class=FALSE
compound=Cc1ccc(C(=O)O)cc1[N+](=O)[O-] assigned_class=FALSE
compound="CCOC(=O)C1OC1c1ccccc1 (configuration not stated)" assigned_class=FALSE
compound=CCNC(=S)NCC assigned_class=FALSE
compound=C=C1CC[C@H](O)C/C1=C/C=C1\CCC[C@]2(C)[C@@H]([C@H](C)CCCC(C)C)CC[C@@H]12 assigned_class=TRUE
compound=CN(C)c1ccc(Cc2ccc(N(C)C)cc2)cc1 assigned_class=FALSE
compound=C/C(Cl)=C/CCl assigned_class=FALSE
compound=Nc1cc(C(=O)O)c(O)c(S(=O)(=O)O)c1 assigned_class=FALSE
compound=COc1ccc(C)cc1N assigned_class=FALSE
compound=Nc1ccc2c(c1)C(=O)c1ccccc1C2=O assigned_class=FALSE
compound="C[C@@H]1CC2(OC(O)[C@]3(C)O[C@H]23)O[C@H]2C[C@@]3(C)[C@@H]4CC[C@H]5C(C)(C)C(O[C@@H]6OC[C@@H](O)[C@H](O)[C@H]6O)CC[C@@]56C[C@@]46CC[C@]3(C)[C@@H]12 (some centres not stated)" assigned_class=FALSE
compound=S=C(NC1CCCCC1)NC1CCCCC1 assigned_class=FALSE
compound=O=C(O)c1cc(N=Nc2ccc([N+](=O)[O-])cc2)ccc1O assigned_class=FALSE
compound=OC1CCCCC1 assigned_class=FALSE
compound=CCN(CC)c1ccc2c(C)cc(=O)oc2c1 assigned_class=FALSE
compound=CC(C)COC(=O)COc1cc(Cl)c(Cl)cc1Cl assigned_class=FALSE
compound=Brc1cc(Br)c(Oc2cc(Br)c(Br)cc2Br)cc1Br assigned_class=FALSE
compound=Cc1cc2nc(N)sc2cc1C assigned_class=FALSE
